Tested on: rodent lifetime carcinogenesis bioassay, tumor incidence TD50
TEST METHOD NOTES: carcinogenic potency in animals, long-term in vivo studies, CPDB compilation (AID 1745844)
TEST CONDITIONS: rat; strain Fischer 344; males; in feed; site: any site (literature study); lesion: several types; types named in the paper; dosed 78 weeks; study length 105 weeks

| LINE NOTATION | TD50 (mg/kg/day) |
| --- | --- |
| [O-]/[N+](=N\O)c1ccccc1 | 8.85 |
| Nc1ccc(Cl)cc1N | 362 |

* * *

TD50 for assorted molecules
Test system: rodent lifetime carcinogenesis bioassay, tumor incidence TD50
TEST METHOD NOTES: carcinogenic potency in animals, long-term in vivo studies, CPDB compilation (AID 1745844)
TEST CONDITIONS: rat; strain Fischer 344; males; in feed; site: liver; lesion: hepatocellular adenoma + hepatocellular carcinoma + neoplastic nodule; dosed 78 weeks; study length 104 weeks

| LINE NOTATION | TD50 |
| --- | --- |
| Nc1ccc(N=Nc2ccccc2)c(N)n1 | 2170 mg/kg/day |
| Nc1ccc(Cl)c(N)c1 | 1570 mg/kg/day |
| c1ccc2n[nH]nc2c1 | 2720 mg/kg/day |
| Cc1ccc2c(c1N)C(=O)c1ccccc1C2=O | 39.9 mg/kg/day |
